Biological target: human somatostatin receptor subtype 5 (Homo sapiens)
Construct: expressed in transfected cells
Sequence (P35346 whole entry): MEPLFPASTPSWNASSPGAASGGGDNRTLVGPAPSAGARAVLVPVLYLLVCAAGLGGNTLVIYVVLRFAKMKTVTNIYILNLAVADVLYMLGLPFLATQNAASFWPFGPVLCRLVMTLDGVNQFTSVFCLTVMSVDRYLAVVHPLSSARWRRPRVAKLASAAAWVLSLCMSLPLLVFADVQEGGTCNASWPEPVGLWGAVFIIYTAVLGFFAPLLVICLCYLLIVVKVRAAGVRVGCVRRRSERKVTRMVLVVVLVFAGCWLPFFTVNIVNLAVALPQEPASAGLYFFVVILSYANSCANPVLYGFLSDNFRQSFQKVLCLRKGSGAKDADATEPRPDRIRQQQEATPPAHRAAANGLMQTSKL
Assay: cAMP assay for SST5R (inhibition of cAMP in CHO-K1 cells)
Assay type: cell-based
Details: Table B; class symbols; SST5 receptor over SST2 receptor
Measured quantity: Fold selectivity for SST5 vs SST2

As a guide, the following entries are already answered.
Structure notation | Measurement
COc1ncc(C(=O)N[C@@H](C)C2CC2)c(N2CC[C@](C)(N)C2)c1-c1cncc(Cl)c1 | +++ (+++=>500)
Cc1ncc(C(=O)N[C@@H](C)C(F)(F)F)c(N2CC[C@H](N)C2)c1-c1cc(F)cc(F)c1 | ++ (++=100 to 499)
Cc1cc(F)cc(-c2cncc(C(=O)NC(C3CC3)C3CC3)c2N2CC[C@](C)(N)C2)c1 | +++ (+++=>500)
C[C@]1(N)CCN(c2c(C(=O)NC34CC(F)(C3)C4)cnc(C#N)c2-c2cc(F)cc(F)c2)C1 | +++ (+++=>500)
C[C@H](NC(=O)c1cncc(-c2cccc3c2cnn3C)c1N1CC[C@](C)(N)C1)C1CC1 | +++ (+++=>500)
CCC(CC)NC(=O)c1cnc(C#N)c(-c2cc(F)cc(F)c2)c1N1CC[C@](C)(N)C1 | +++ (+++=>500)

Please look at the following molecule next.
Ask: Need Fold selectivity for SST5 vs SST2 of C[C@H](NC(=O)c1cnc(C(F)(F)F)c(-c2cc(F)cc(Cl)c2)c1N1CC[C@H](N)C1)C1CC1 , thanks.
Reply: ++ (++=100 to 499)
